tested.system: TcpJ type 4 prepilin peptidase (TFPP) (Vibrio cholerae serotype O1, UniProt A5F385, P151Q/Q149P/S169T)
Format: biochemical
Square brackets hold non-standard residues; d marks the D form. Peptide text beside a SMILES is read from it. Nle = CCCC[C@H](N)C(=O)O
// values below are reported % Cleavage
Give the quantity in %, number only.

// below: answered compounds
CC(C)C[C@H](NC(=O)[C@@H](O)[C@H](N)Cc1ccccc1)C(=O)O [Bestatin]    81
CCN1C(=O)C=CC1=O [NEM]    30
CC(C)C[C@H](NP(=O)(O)O[C@@H]1O[C@@H](C)[C@H](O)[C@@H](O)[C@H]1O)C(=O)N[C@@H](Cc1c[nH]c2ccccc12)C(=O)O [Phosphoramidon]    89
CCCC[C@@H](C=O)NC(=O)[C@H](CC(C)C)NC(=O)[C@H](CC(C)C)NC(C)=O [Calpain inhibitor I] (Ac-Leu-Leu-[Nle]-aldehyde)    87

# next compound below
Identify % Cleavage associated with the compound CC(=O)N[C@@H](CC(C)C)C(=O)N[C@@H](CC(C)C)C(=O)N[C@H](C=O)CCCNC(=N)N [Leupeptin] 85
